molecular target: MC4R (Homo sapiens, UniProt P32245); assay: β-arrestin assay (Pathhunter eXpress U2OS cell line); type: cell-based; set-up: expressed in transfected cells; host or cells: U2OS (Pathhunter eXpress β-arrestin cell line); conditions: U2OS cells, 90 min at 37° C.
Sequence (P32245 whole entry): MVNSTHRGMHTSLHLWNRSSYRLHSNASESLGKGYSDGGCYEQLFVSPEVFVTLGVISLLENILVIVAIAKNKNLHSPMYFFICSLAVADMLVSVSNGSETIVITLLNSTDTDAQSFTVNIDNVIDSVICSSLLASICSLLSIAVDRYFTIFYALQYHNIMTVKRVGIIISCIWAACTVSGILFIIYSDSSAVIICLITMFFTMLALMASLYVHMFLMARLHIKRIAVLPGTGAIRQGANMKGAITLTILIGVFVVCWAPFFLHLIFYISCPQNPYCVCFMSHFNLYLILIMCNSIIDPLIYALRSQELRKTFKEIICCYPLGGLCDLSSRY
Sequence (P32121 whole entry partner): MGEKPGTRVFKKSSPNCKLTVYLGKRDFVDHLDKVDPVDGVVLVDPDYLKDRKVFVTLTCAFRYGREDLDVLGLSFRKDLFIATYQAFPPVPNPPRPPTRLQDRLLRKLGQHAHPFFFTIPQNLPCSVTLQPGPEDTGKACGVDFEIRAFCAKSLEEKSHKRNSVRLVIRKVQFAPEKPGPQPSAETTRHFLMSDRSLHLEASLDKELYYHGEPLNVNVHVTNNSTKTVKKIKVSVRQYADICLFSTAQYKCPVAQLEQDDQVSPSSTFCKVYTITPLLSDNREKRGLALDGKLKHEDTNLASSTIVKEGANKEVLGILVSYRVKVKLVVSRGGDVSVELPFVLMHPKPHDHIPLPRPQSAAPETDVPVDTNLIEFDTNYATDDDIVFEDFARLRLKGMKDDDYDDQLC
pEC50: −log10 of the molar value. Where a name gives a salt, the structure may show the parent alone.
Mark 0 for pEC50 values under 8, and 1 for everything at or above.

[Q] Record CC(C)(C)C(=O)N([C@H]1C[C@@H](C(=O)N2CCOCC2)N(C(=O)[C@@H]2CN(C(C)(C)C)C[C@H]2c2ccc(Cl)cc2)C1)[C@H]1CC[C@@H](C)CC1 [Example 3, hydrochloride] ; criterion: pEC50 no lower than 8. Met?
[A] 1

[Q] Record CC(C)C(=O)N([C@H]1C[C@@H](C(=O)N2CCOCC2)N(C(=O)[C@@H]2CN(C(C)(C)C)C[C@H]2c2ccc(Cl)cc2)C1)[C@H]1CC[C@@H](C)CC1.Cl [Example 1, hydrochloride] ; criterion: pEC50 no lower than 8. Met?
[A] 1

[Q] Record CC(=O)N(C1CCC(C)(C)CC1)[C@H]1C[C@@H](C(=O)N2CCOCC2)N(C(=O)[C@@H]2CN(C(C)(C)C)C[C@H]2c2ccc(F)cc2F)C1.Cl [Comparative Example 1 (A95), hydrochloride] ; criterion: pEC50 no lower than 8. Met?
[A] 0

[Q] Record CC(=O)N(C1CCC(C)(C)CC1)[C@H]1C[C@@H](C(=O)N2CCOCC2)N(C(=O)[C@@H]2CN(C(C)(C)C)C[C@H]2c2ccc(Cl)cc2)C1.Cl [Comparative Example 2 (A96), hydrochloride] ; criterion: pEC50 no lower than 8. Met?
[A] 0

====

assay: Pharmacokinetic profile in mice, plasma and brain, oral administration; assay type: in vivo, C57BL6 mice; conditions: C57BL6, mouse, 10 mg/kg, brain, read-out: AUCinf, Brain
REPORTED ENDPOINT: AUC(0-inf) (ng·h/mL)
Please give a number only; it is taken to be in ng·h/mL.

[Q] So what does the record say about AUC(0-inf) for CC(C)C(=O)N([C@H]1C[C@@H](C(=O)N2CCOCC2)N(C(=O)[C@@H]2CN(C(C)(C)C)C[C@H]2c2ccc(Cl)cc2)C1)[C@H]1CC[C@@H](C)CC1.Cl [Example 1] ?
[A] 1500

[Q] So what does the record say about AUC(0-inf) for CC(=O)N(C1CCC(C)(C)CC1)[C@H]1C[C@@H](C(=O)N2CCOCC2)N(C(=O)[C@@H]2CN(C(C)(C)C)C[C@H]2c2ccc(Cl)cc2)C1.Cl [Comparative Example 2 (A96)] ?
[A] 530

[Q] So what does the record say about AUC(0-inf) for CC(=O)N(C1CCC(C)(C)CC1)[C@H]1C[C@@H](C(=O)N2CCOCC2)N(C(=O)[C@@H]2CN(C(C)(C)C)C[C@H]2c2ccc(F)cc2F)C1.Cl [Comparative Example 1 (A95)] ?
[A] 222

====

Counter-ions that a name gives are not always drawn.
REPORTED ENDPOINT: pKi
pKi here is simply -log10 of the concentration when that concentration is written in mol/L.

[Q] Lab note: need pKi with MC4R (Homo sapiens) for entry CC(=O)N(C1CCC(C)(C)CC1)[C@H]1C[C@@H](C(=O)N2CCOCC2)N(C(=O)[C@@H]2CN(C(C)(C)C)C[C@H]2c2ccc(Cl)cc2)C1.Cl [Comparative Example 2 (A96), hydrochloride] , please look it up.
[A] 6.44

[Q] Lab note: need pKi with MC4R (Homo sapiens) for entry CC(=O)N(C1CCC(C)(C)CC1)[C@H]1C[C@@H](C(=O)N2CCOCC2)N(C(=O)[C@@H]2CN(C(C)(C)C)C[C@H]2c2ccc(F)cc2F)C1.Cl [Comparative Example 1 (A95), hydrochloride] , please look it up.
[A] 5.85

[Q] Lab note: need pKi with MC4R (Homo sapiens) for entry CCC(=O)N([C@H]1C[C@@H](C(=O)N2CCOCC2)N(C(=O)[C@@H]2CN(C(C)(C)C)C[C@H]2c2ccc(Cl)cc2)C1)[C@H]1CC[C@@H](C)CC1 [Example 2, hydrochloride] , please look it up.
[A] 6.96

[Q] Lab note: need pKi with MC4R (Homo sapiens) for entry CC(C)(C)C(=O)N([C@H]1C[C@@H](C(=O)N2CCOCC2)N(C(=O)[C@@H]2CN(C(C)(C)C)C[C@H]2c2ccc(Cl)cc2)C1)[C@H]1CC[C@@H](C)CC1 [Example 3, hydrochloride] , please look it up.
[A] 7.62

[Q] Lab note: need pKi with MC4R (Homo sapiens) for entry CC(C)C(=O)N([C@H]1C[C@@H](C(=O)N2CCOCC2)N(C(=O)[C@@H]2CN(C(C)(C)C)C[C@H]2c2ccc(Cl)cc2)C1)[C@H]1CC[C@@H](C)CC1.Cl [Example 1, hydrochloride] , please look it up.
[A] 7.19
